target: MBP-Siah (Mus musculus, UniProt P61092)
Construct: made in house
Sequence (P61092 1-282): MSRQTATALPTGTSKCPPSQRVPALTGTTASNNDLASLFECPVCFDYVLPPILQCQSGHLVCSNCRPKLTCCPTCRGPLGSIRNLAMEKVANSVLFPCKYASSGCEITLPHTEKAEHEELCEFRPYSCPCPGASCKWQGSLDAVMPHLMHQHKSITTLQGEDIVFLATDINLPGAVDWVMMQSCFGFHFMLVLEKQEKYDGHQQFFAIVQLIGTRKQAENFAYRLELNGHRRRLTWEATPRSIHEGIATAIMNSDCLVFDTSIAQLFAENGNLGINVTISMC
measurement.protocol: Competition assay: peptides as competitors of wild-type PHYL108-130 binding to Siah (96-well plate, anti-MBP detection)
condition.info: competition with immobilised GST-PHYL108-130 for MBP-Siah, 1 hour at room temperature; estimated from inhibition curves; read-out: IC50 (concentration at which 50% inhibition is observed)
No end group written: not given here.
measure: IC50

1) QQERTKLRPVAMVRPTVRVQPQL [PHYL108-130]: 50 to 100 nM
